# test-system: T1, human IgE (human, UniProt P01854 1-428)
# T1 construct: written under the same molecule; also called IgE (Abcam ab65866); soluble IgE
# T1 sequence (P01854 other isoform, or with tags, fused parts or gaps limits assumed, form in doubt): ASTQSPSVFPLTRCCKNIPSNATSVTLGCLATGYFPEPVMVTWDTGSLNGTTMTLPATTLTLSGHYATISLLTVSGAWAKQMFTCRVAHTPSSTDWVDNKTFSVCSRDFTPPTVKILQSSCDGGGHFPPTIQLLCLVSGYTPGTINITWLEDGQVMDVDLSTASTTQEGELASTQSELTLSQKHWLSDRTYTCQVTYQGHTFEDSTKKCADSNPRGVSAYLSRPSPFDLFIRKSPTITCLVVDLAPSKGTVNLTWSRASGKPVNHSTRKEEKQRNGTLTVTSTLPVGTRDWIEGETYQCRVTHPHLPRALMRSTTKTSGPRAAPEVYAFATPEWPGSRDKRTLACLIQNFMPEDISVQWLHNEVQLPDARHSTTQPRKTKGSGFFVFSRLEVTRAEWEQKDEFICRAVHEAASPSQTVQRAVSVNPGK
# assay-remarks: ELISA, clone lysate on IgE-coated plate
Tick Condition met if Confirm OD450 Duplicate1 is 0.6 or greater. Tick Condition not met if Confirm OD450 Duplicate1 is less than 0.6.

Previously resolved entries follow.
>>> discrete_label("9G9 (VHH, also called hzB10v40 VHH, CDR1 site 9 M to T) VHH: EVQLLESGGGEVQPGGSLRLSCVASGLTFSSYNTGWLRQAPGKEREFVGLSGSSSTSTYYAESVKGRFTISRDNAKNTVYLQMTSLRAEDTAVYYCAARRLLSTYWSDRSWDFWGQGTLVTVEP")
"Condition not met"
>>> discrete_label("3-1B10 (VHH, also called hzB10v40 VHH, CDR1 site 3 T to K) VHH: EVQLLESGGGEVQPGGSLRLSCVASGLKFSSYNMGWLRQAPGKEREFVGLSGSSSTSTYYAESVKGRFTISRDNAKNTVYLQMTSLRAEDTAVYYCAARRLLSTYWSDRSWDFWGQGTLVTVEP")
"Condition not met"

Task: For this binder, is measured Confirm OD450 Duplicate1 0.6 or higher? 44A11 (VHH) VHH: EVQLLESGGGEVQPGGSLRLSCVASGLTFSSYNMGWLRQAPGKEREFVGLSGSSSTSTYYAESVKGRFTISRDNAKNTVYLQMTSLRAEDTAVYYCAARRLLSTYWSDRSWDKWGQGTLVTVEP
Result: Condition met

Task: Test whether the binder 8G10 (VHH, also called hzB10v40 VHH, CDR1 site 8 N to S) VHH: EVQLLESGGGEVQPGGSLRLSCVASGLTFSSYSMGWLRQAPGKEREFVGLSGSSSTSTYYAESVKGRFTISRDNAKNTVYLQMTSLRAEDTAVYYCAARRLLSTYWSDRSWDFWGQGTLVTVEP records Confirm OD450 Duplicate1 of 0.6 or higher.
Result: Condition not met

Task: Does 4-1F10 (VHH, also called hzB10v40 VHH, CDR1 site 4 F to Y) VHH: EVQLLESGGGEVQPGGSLRLSCVASGLTYSSYNMGWLRQAPGKEREFVGLSGSSSTSTYYAESVKGRFTISRDNAKNTVYLQMTSLRAEDTAVYYCAARRLLSTYWSDRSWDFWGQGTLVTVEP have a reported Confirm OD450 Duplicate1 of at least 0.6?
Result: Condition met

Task: Textbook exercise: given the entry 28H1 (VHH) VHH: EVQLLESGGGEVQPGGSLRLSCVASGLTFSSYNMGWLRQAPGKEREFVGLSGSSSTSTYYAESVKGRFTISRDNAKNTVYLQMTSLRAEDTAVYYCSARRLLSTYWSDRSWDFWGQGTLVTVEP , state whether its Confirm OD450 Duplicate1 is greater than or equal to 0.6.
Result: Condition not met
